Values from PubChem BioAssay (NCI)

tested on: HCT-116 colon; experiment: NCI tumour cell line growth inhibition, 48 h; in the data active = GI50 below about 0.43 µM; inactive = the rest
Valid outcomes are listed here; reply with one: Yes for active, No for inactive

Query: recorded result category for CNC(=O)c1ccc(N2CCN(Cc3ccc4nc(C)c(=O)[nH]c4c3F)CC2)c(F)n1 in this test No

Please share the test call associated with S=C(Nc1ccc(Br)cc1)Nc1ccc(Br)cc1 . No

Can you look up the reported call for CC(C)(C)C(=O)c1c(C(F)(F)F)n([O-])c2ccccc2[n+]1=O for me? No

State the result this test recorded for CN(C)CCCOc1ccc(-c2ccc3ncc4c(c3c2)n(C2CCOCC2)c(=O)n4C)cn1 . No

Which outcome was entered for the compound CCC[CH2][Sn]([CH2]CCC)([CH2]CCC)[O]c1ccc(Cl)cc1Cl in this test? Yes

Fill in: this test's call for COc1cccc(-c2nc3sccn3c2-c2ccnc(NCCCNS(=O)(=O)c3cccc(F)c3)c2)c1 is ___ No

For this compound, state the assay outcome: COc1cc(C#Cc2ccc(=O)oc2C#Cc2ccccc2)cc(OC)c1OC No

For Cc1sc2nc(-c3ccncc3)c(/C=N/N=C(N)N)n2c1C , what call appears in the results of this test? No

Given N[C@H](C(=O)O)[C@H]1ON=C(Cl)[C@@H]1O , state the outcome it received in this test. No

Which outcome was entered for the compound COc1cc(/C=C2\C(=O)Nc3cc(C)c(O)cc32)cc(OC)c1OC in this test? No

For Fc1ccc2[nH]cc(-c3nonc3-c3c[nH]c4ccc(Br)cc34)c2c1 , which call appears in the assay record? No

// param item: [Cl][Hg][Cl] ; yields the recorded call No

Record lookup: outcome of this test for O=C(Nc1cccc(-n2ccc3c(NC(=O)c4ccccc4)nccc32)c1)Nc1cc(C(F)(F)F)cc(C(F)(F)F)c1 ? No

# lookup: test call for CCOC(=O)c1sc(-c2ccc(OS(=O)(=O)c3ccc(Br)s3)c(C=O)c2)nc1C No

----------
system: UACC-62 melanoma; test: NCI tumour cell line growth inhibition, 48 h; in the data active means GI50 below about 0.43 µM; inactive means the rest
Your response should consist of one outcome taken from 1.0 for active, 0.0 for inactive

State the result this test recorded for C=C1C(O)C2C(=C(CCc3ccccc3)C13CC3)C(=O)C(C)(CO)C2O (stereo not drawn) . 0.0

Give the logged outcome of this assay for the following compound: COC(=O)CCc1c[nH]c2ccc(N(CCCl)CCCl)cc12 0.0

Call for entry N[C@H](C(=O)O)[C@H]1ON=C(Cl)[C@@H]1O : 0.0

What did the test return for COc1ccc2c(c1)C(=O)c1c-2n(CCCN=[N+]=[N-])c(=O)c2cc(OC)c(OC)cc12 ? 0.0

Look up the recorded call for CN[C@H]1C=C[C@@H]2/C=C(C)/C=C/[C@@H](C)[C@H]([C@H](C)[C@H](O)[C@@H](C)NC(C)=O)OC(=O)/C=C/C=C(C)\C=C\[C@]2(C)C1 in this test. 1.0

Status in this test for S=C(Nc1ccc(Br)cc1)Nc1ccc(Br)cc1 ? 0.0

Given C=C1C(=O)O[C@H]2C[C@@H]1CC/C(C)=C/CC/C(C)=C/CC[C@H]2C , state the outcome it received in this test. 0.0

Recorded test outcome, item Cc1cnc(NC(=O)Nc2cc(Br)c(C)cc2OC[C@@H]2CNCCO2)cn1 0.0
